Test system: transglutaminase (TGase)
assay: Measurement of TG (TGase inhibitory activity, monodansyl cadaverine / N,N-dimethylcasein fluorescence, FDSS 3000)
Format: biochemical
settings: TGase activity with compound (10 mM, 1 μL in 0.1 ml enzyme reaction solution); DMSO control taken as 100
So I've got a bunch of molecules here, and I need their TGase activity remaining (% of DMSO control = 100) values.
Numbers only.

Past entries and their recorded results:
CC(CNCCN)OB(c1ccccc1)c1cccc(COCc2cccc(B(OC(C)CNCCN)c3ccccc3)c2)c1 (stereo not shown) [Example 470] : 19
NCCC(N)C(=O)OB(c1ccccc1)c1ccccc1 (stereo not shown) [Example 280, diphenyl(2,4-diaminolacetic acid)borane] : 98
OB(c1ccc(COCCOc2ccc(B(O)c3cccs3)cc2)cc1)c1cccs1 [Example 296] : 97
CN(C)CCOB(c1ccc(COCc2ccc(B(OCCN(C)C)c3ccc(C(F)(F)F)cc3)cc2)cc1)c1ccc(C(F)(F)F)cc1 [Example 424] : 22
NCCSB(c1ccc(Cl)cc1F)c1ccc(Cl)cc1F [Example 1] : 28

Look up TGase activity remaining (% of DMSO control = 100) for the entries below, preserving their order.
1. NC(=O)CCC(N)C(=O)OB(c1ccccc1)c1cccc(COCc2cccc(B(OC(=O)C(N)CCC(N)=O)c3ccccc3)c2)c1 (stereo not shown) [Example 471]
2. c1ccc(COB(c2ccc(Oc3ccc(B(OCc4ccccn4)c4cccc5ccccc45)cc3)cc2)c2cccc3ccccc23)nc1 [Example 443]
3. Cc1ccc(B(OC(=O)c2ccccn2)c2ccc(C)c(Cl)c2)cc1Cl [Example 221]
4. NCCOB(c1cc(F)c(F)c(F)c1)c1cc(F)c(F)c(F)c1 [Example 89]
5. OB(c1ccc(C(F)(F)F)cc1)c1c2ccccc2c(B(O)c2ccc(C(F)(F)F)cc2)c2ccccc12 [Example 374]
6. CC(O)C(N)COB(c1ccc(Cl)c(F)c1)c1ccc(Cl)c(F)c1 (stereo not shown) [Example 238]
7. N#Cc1ccc(B(O)c2ccc(C#N)cc2)cc1 [Example 102, bis(4-cyanophenyl)borinic acid]
8. NCCNCCOB(c1ccc(COCc2ccc(B(OCCNCCN)c3ccc(F)c(F)c3)cc2)cc1)c1ccc(F)c(F)c1 [Example 419]

[52, 84, 73, 80, 17, 87, 72, 140]

Provide each entry's TGase activity remaining (% of DMSO control = 100) from the list below.
1. Cc1ccc(B(OCCN)c2ccc(COCc3ccc(B(OCCN)c4ccc(C)c(Cl)c4)cc3)cc2)cc1Cl [Example 420]
2. OB(c1ccc(COCc2ccc(B(O)c3ccc(C(F)(F)F)cc3)cc2)cc1)c1ccc(C(F)(F)F)cc1 [Example 407]
3. NCCCCC(N)C(=O)OB(c1ccccc1)c1ccc(COCc2ccc(B(OC(=O)C(N)CCCCN)c3ccccc3)cc2)cc1 (stereo not shown) [Example 409]

−3
77
29

###

System: transglutaminase (TGase)
assay: Measurement of TG (TGase inhibitory activity, monodansyl cadaverine / N,N-dimethylcasein fluorescence, FDSS 3000)
Assay type: biochemical
settings: TGase activity with compound (10 mM, 1 μL in 0.1 ml enzyme reaction solution); DMSO control taken as 100
observable: TGase activity remaining (% of DMSO control = 100)
Numbers only.

// below: answered compounds
OB(c1cc(F)c(F)c(F)c1)c1cc(F)c(F)c(F)c1 : 97
c1ccc(B(OCc2ccccn2)c2cccc(COCc3cccc(B(OCc4ccccn4)c4ccccc4)c3)c2)cc1 : 60
Cc1ccc(B(OCCN2CCNCC2)c2ccc(C)c(Cl)c2)cc1Cl : 41
CN(C)CCOB(c1ccccc1)c1ccc(COc2ccc(B(OCCN(C)C)c3ccccc3)cc2)cc1 : 53

Dear colleague, could you send me TGase activity remaining (% of DMSO control = 100) for each of the items below? Thanks.
1. NCCCCC(N)C(=O)OB(c1ccccc1)c1ccccc1 (centres unmarked) [Example 271, diphenyl(lysinate-O,N)borane]
2. NCCOB(c1ccc(C(F)(F)F)cc1)c1ccc(C(F)(F)F)cc1

[109, 54]
